subjectOfTest: T1, HLA-DR1 molecule (DRB1*0101) (human)
T1 construct: HLA class II heterodimer
assayDetails: competitive ELISA, tracer HA 306-318
// returns no unless IC50 is strictly below 7 µM, in which case yes

{"binder": "LTLGEFLKLDRERAK (synthetic 15-mer) [survivin peptide 96-110]", "qualitativeLabel": "yes"}
{"binder": "LKLDRERAKNKIAKE (synthetic 15-mer) [survivin peptide 102-116]", "qualitativeLabel": "no"}
{"binder": "FCFKELEGWEPDDDP (synthetic 15-mer) [survivin peptide 59-73]", "qualitativeLabel": "yes"}
{"binder": "HRISTFKNWPFLEGC (synthetic 15-mer) [survivin peptide 17-31]", "qualitativeLabel": "yes"}
{"binder": "DPIEEHKKHSSGCAF (synthetic 15-mer) [survivin peptide 72-86]", "qualitativeLabel": "no"}
{"binder": "LSVKKQFEELTLGEF (synthetic 15-mer) [survivin peptide 87-101]", "qualitativeLabel": "yes"}
{"binder": "PAWQPFLKDHRISTF (synthetic 15-mer) [survivin peptide 8-22]", "qualitativeLabel": "yes"}
